# Tested system: Phosphatidylinositol 4,5-bisphosphate 3-kinase catalytic subunit gamma isoform (Homo sapiens, UniProt P48736)
# Sequence (P48736 whole entry, canonical isoform): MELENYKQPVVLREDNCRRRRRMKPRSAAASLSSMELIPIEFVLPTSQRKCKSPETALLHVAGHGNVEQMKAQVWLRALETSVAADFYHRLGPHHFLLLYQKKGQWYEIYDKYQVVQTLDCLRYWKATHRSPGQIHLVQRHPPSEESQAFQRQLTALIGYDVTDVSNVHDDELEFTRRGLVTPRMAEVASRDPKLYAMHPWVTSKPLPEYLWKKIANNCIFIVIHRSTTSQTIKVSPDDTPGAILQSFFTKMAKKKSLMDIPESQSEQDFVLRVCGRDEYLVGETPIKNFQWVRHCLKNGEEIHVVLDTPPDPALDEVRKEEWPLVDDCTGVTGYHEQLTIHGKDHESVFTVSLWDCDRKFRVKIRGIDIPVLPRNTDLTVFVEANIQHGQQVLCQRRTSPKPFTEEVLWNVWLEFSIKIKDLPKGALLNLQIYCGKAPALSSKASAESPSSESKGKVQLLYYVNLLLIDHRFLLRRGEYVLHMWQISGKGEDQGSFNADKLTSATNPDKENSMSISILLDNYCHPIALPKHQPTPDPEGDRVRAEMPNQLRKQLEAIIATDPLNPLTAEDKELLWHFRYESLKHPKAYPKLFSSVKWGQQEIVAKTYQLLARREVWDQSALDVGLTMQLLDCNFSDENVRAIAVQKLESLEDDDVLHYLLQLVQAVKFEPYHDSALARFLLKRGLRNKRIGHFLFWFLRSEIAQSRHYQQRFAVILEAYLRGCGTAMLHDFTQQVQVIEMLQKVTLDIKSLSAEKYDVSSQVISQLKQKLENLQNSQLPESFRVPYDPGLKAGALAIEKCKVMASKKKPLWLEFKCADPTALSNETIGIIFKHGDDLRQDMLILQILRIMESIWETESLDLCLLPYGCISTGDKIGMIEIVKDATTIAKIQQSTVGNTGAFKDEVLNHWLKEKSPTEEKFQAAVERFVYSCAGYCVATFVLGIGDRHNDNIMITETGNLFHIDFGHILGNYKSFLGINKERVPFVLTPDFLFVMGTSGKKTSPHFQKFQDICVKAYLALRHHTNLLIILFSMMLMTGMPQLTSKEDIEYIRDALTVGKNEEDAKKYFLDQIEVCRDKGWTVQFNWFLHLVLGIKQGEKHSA
# Experiment: PI3Kγ (p110γ) Recombinant Human Protein was purchased from Life technology (Grand Island, N.Y.). […] The final concentration of DMSO in the assay was 2%. […] ATP, 13 nM PI3Kγ. […] The final concentration of SPA beads is 1.0 mg/mL.
pIC50: −log10 of the molar value.
Each record here notes measured pIC50.

Recorded pIC50, per entry:
[[record]]
compound = "CC(NC(=O)c1c(N)nn2cccnc12)c1cc(C#N)c2cncn2c1-c1ccccc1 (stereo not given)"
reported_value = "> 6.30"

[[record]]
compound = "CCOc1c(C(C)NC(=O)c2c(N)nn3cccnc23)cc(Cl)c2cnn(C)c12 (stereo not given)"
reported_value = "> 7.00"

[[record]]
compound = "CCCC(NC(=O)c1c(N)nn2cccnc12)c1cc(Cl)c2cncn2c1N1CCS(=O)(=O)CC1 (stereo not given)"
reported_value = "> 7.00"

[[record]]
compound = "Cc1n[nH]c2c(-c3ccccc3)c(C(C)NC(=O)c3c(N)nn4cccnc34)cc(Cl)c12 (stereo not given)"
reported_value = "> 7.00"


Okay, now this compound:
Input line: Consider the compound Cc1cc(C(C)NC(=O)c2c(N)nn3cccnc23)c(-c2cccc(F)c2)n2c(C)ncc12 (stereo not given) and give its measured pIC50.
Output line: > 7.00

----------
# Tested system: Phosphatidylinositol 4,5-bisphosphate 3-kinase catalytic subunit delta isoform (Homo sapiens, UniProt O00329)
# Experiment: PI3Kδ (p110δ/p85α) Recombinant Human Protein was purchased from Eurofins (St Charles, Mo.). […] The final concentration of DMSO in the assay was 2%. […] ATP, 3.4 nM PI3Kδ. […] The final concentration of SPA beads is 1.0 mg/mL.
pIC50: −log10 of the molar value.
Endpoint: pIC50

These recorded examples may help you get a feel for the data.
[[record]]
compound = "CC(NC(=O)c1c(N)nn2cccnc12)c1cc(Cl)c2cn(CC(=O)N3CCOCC3)nc2c1-c1ccccc1 (stereo not given)"
reported_value = "> 6.30"

[[record]]
compound = "CC(NC(=O)c1c(N)nn2cccnc12)c1cc(Cl)c2c(Br)n[nH]c2c1-c1ccccc1 (stereo not given)"
reported_value = "> 5.70"

[[record]]
compound = "Cc1ncc2c(Cl)cc(C(C)NC(=O)c3c(N)nn4cccnc34)c(-c3cccc(F)c3)n12 (stereo not given)"
reported_value = "> 7.00"

[[record]]
compound = "CC(NC(=O)c1c(N)nn2cccnc12)c1cc(Cl)c2cncn2c1-c1ccccc1 (stereo not given)"
reported_value = "> 7.00"


Input line: Fill blank: measured pIC50 of the compound CC(NC(=O)c1c(N)nn2cccnc12)c1cc(Cl)c2cn(Cc3ccn(C)n3)nc2c1-c1ccccc1 (stereo not given) is ____.
Output line: > 5.70

Input line: Using the record for CC(NC(=O)c1c(N)nn2cccnc12)c1cc(C#N)c2cncn2c1-c1ccccc1 (stereo not given) , report its pIC50.
Output line: > 6.30

Input line: Need pIC50, item CCOc1c(C(C)NC(=O)c2c(N)nn3cccnc23)cc(Cl)c2cn(CC)nc12 (stereo not given)
Output line: > 5.70

----------
# Tested system: Phosphatidylinositol 4,5-bisphosphate 3-kinase catalytic subunit gamma isoform (Homo sapiens, UniProt P48736)
# Experiment: PI3Kγ (p110γ) Recombinant Human Protein was purchased from Life technology (Grand Island, N.Y.). […] The final concentration of DMSO in the assay was 2%. […] ATP, 13 nM PI3Kγ. […] The final concentration of SPA beads is 1.0 mg/mL.
pIC50: −log10 of the molar value.
Endpoint: pIC50

[[record]]
compound = "CCOc1c(C(C)NC(=O)c2c(N)nn3cccnc23)cc(Cl)c2cn(CC)nc12 (stereo not given)"
reported_value = "> 6.30"

[[record]]
compound = "Cc1ncc2c(Cl)cc(C(C)NC(=O)c3c(N)nn4cccnc34)c(-c3cccc(F)c3)n12 (stereo not given)"
reported_value = "> 7.00"

[[record]]
compound = "CC(NC(=O)c1c(N)nn2cccnc12)c1cc(Cl)c2cnn(CCN3CCOCC3)c2c1-c1ccccc1 (stereo not given)"
reported_value = "> 7.00"


Input line: What value of pIC50 has been reported for the following compound? CC(NC(=O)c1c(N)nn2cccnc12)c1cc(Cl)c2cn(CC(=O)N3CCOCC3)nc2c1-c1ccccc1 (stereo not given)
Output line: > 6.30

Input line: What does the record list as pIC50 for CC(NC(=O)c1c(N)nn2cccnc12)c1cc(Cl)c2cncn2c1-c1ccccc1 (stereo not given) ?
Output line: > 7.00

----------
# Tested system: Phosphatidylinositol 4,5-bisphosphate 3-kinase catalytic subunit gamma isoform (Homo sapiens, UniProt P48736)
# Experiment: PI3Kγ (p110γ) Recombinant Human Protein was purchased from Life technology (Grand Island, N.Y.). […] The final concentration of DMSO in the assay was 2%. […] ATP, 13 nM PI3Kγ. […] The final concentration of SPA beads is 1.0 mg/mL.
pIC50: −log10 of the molar value.
Endpoint: pIC50

Look over these answered cases.
[[record]]
molecule = "Cc1cc(C(C)NC(=O)c2c(N)nn3cccnc23)c(-c2ccccc2)c2[nH]nc(C)c12 (stereo not given)"
reported_value = "> 6.30"

[[record]]
molecule = "CCOc1c(C(C)NC(=O)c2c(N)nn3cccnc23)cc(Cl)c2cn(C)nc12 (stereo not given)"
reported_value = "> 6.30"

[[record]]
molecule = "CC(NC(=O)c1c(N)nn2cccnc12)c1cc(Cl)c2c(Br)n[nH]c2c1-c1ccccc1 (stereo not given)"
reported_value = "> 7.00"

[[record]]
molecule = "CC(NC(=O)c1c(N)nn2cccnc12)c1cc(Cl)c2cn[nH]c2c1-c1ccccc1 (stereo not given)"
reported_value = "> 7.00"


Next up:
Input line: For the molecule CC(NC(=O)c1c(N)nn2cccnc12)c1cc(Cl)c2cn(Cc3ccn(C)n3)nc2c1-c1ccccc1 (stereo not given) , what pIC50 is on record?
Output line: > 6.30

----------
# Tested system: Tyrosine-protein kinase JAK1 (Homo sapiens)
# Sequence (P23458 whole entry, the tested form may be a part): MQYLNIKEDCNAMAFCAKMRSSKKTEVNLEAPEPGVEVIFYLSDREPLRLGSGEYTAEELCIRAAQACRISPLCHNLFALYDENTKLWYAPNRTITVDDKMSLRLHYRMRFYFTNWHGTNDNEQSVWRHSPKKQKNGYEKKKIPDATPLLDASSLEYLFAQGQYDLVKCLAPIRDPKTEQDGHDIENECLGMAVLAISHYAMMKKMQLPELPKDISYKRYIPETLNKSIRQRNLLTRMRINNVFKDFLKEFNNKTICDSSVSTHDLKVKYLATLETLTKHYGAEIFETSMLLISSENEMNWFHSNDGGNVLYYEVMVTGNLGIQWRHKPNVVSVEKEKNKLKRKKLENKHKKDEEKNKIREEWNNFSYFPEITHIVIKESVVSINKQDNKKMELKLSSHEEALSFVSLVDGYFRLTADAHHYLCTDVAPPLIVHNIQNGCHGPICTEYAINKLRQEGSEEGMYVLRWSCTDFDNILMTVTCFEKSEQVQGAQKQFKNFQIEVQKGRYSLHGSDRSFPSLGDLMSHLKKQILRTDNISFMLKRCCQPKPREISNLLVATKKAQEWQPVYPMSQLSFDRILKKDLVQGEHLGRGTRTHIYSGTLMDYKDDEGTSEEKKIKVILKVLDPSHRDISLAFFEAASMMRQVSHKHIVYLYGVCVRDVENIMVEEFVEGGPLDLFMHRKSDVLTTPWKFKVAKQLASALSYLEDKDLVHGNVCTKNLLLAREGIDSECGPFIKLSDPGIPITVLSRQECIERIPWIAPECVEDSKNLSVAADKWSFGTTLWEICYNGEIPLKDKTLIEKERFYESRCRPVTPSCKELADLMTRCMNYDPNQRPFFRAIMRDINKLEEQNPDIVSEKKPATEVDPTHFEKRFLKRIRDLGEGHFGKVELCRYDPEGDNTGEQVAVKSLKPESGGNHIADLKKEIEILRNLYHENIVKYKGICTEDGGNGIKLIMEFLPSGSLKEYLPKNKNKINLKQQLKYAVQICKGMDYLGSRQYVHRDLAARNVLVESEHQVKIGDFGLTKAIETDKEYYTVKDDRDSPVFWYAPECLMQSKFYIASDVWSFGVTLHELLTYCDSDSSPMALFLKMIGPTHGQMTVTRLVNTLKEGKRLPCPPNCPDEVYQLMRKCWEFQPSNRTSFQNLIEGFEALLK
# Experiment: In Vitro JAK Kinase Assay: Compounds herein were tested for inhibitory activity of JAK targets according to the following in vitro assay described in Park et al., Analytical Biochemistry 1999, 269, 94-104. The catalytic domains of human JAK1 (a.a. 837-1142), JAK2 (a.a. 828-1132) and JAK3 (a.a. 781-1124) were expressed using baculovirus in insect cells and purified. The catalytic activity of JAK1 …
pIC50: −log10 of the molar value.
The compounds listed here are annotated with their pIC50.

Some solved entries appear below for comparison.
[[record]]
compound = "N#CCC1(n2cc(-c3ncnc4[nH]ccc34)cn2)CN(C2CCN(C(=O)c3ccnc(C(F)(F)F)c3F)CC2)C1 [ITACITINIB]"
endpoint = "pIC50"
reported_value = "> 7.00"

[[record]]
compound = "N#CCC1(n2cc(-c3ncnc4[nH]ccc34)cn2)CN([C@H]2CC[C@@H](Oc3cc(CCO)nc(C(F)(F)F)n3)CC2)C1"
endpoint = "pIC50"
reported_value = "> 7.00"


Input line: API: value(readout= pIC50, system= Tyrosine-protein kinase JAK1 (Homo sapiens), query= N#CCC1(n2cc(-c3ncnc4[nH]ccc34)cn2)CN(C2CCN(C(=O)c3ccnc(C(F)(F)F)n3)CC2)C1 )
Output line: > 7.00

Input line: GET /values?readout=pIC50&system=Tyrosine-protein kinase JAK1 (Homo sapiens)&item= CCNCc1cc(O[C@H]2CC[C@@H](N3CC(CC#N)(n4cc(-c5ncnc6[nH]ccc56)cn4)C3)CC2)nc(C(F)(F)F)c1
Output line: > 7.00

Input line: Under Tyrosine-protein kinase JAK1 (Homo sapiens): pIC50 value of N#CC[C@]1(n2cc(-c3ncnc4[nH]ccc34)cn2)C[C@H](N2CCN(C(=O)c3ccnc(C(F)(F)F)n3)CC2)C1 ?
Output line: > 7.00

----------
# Tested system: Phosphatidylinositol 4,5-bisphosphate 3-kinase catalytic subunit delta isoform (Homo sapiens)
# Sequence (O00329 whole entry): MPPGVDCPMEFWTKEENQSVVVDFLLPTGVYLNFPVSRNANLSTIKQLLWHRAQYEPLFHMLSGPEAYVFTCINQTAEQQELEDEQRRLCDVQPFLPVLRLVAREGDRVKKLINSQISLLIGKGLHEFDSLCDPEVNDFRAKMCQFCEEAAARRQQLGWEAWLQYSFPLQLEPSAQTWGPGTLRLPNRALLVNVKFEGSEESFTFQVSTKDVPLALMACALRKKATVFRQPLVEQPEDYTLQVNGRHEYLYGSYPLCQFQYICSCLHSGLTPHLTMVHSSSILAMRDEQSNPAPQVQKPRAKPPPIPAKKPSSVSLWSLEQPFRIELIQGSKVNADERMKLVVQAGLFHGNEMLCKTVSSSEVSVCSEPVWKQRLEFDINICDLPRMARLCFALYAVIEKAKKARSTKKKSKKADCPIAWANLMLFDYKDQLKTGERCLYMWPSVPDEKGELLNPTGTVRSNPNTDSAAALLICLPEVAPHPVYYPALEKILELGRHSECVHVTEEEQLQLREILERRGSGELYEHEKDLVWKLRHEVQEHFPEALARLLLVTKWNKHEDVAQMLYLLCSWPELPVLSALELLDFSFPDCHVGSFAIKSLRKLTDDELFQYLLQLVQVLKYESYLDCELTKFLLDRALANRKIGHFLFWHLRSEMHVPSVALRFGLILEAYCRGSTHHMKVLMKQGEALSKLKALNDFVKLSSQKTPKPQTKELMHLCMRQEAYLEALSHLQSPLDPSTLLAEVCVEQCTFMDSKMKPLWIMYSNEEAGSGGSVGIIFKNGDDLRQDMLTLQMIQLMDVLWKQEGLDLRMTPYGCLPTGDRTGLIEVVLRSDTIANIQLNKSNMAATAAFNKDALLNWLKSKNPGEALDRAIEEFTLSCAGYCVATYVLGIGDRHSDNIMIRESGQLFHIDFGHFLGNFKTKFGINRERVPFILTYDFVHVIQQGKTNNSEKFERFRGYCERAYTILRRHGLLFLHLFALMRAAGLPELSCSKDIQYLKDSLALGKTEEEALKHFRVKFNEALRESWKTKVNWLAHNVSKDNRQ
# Experiment: PI3Kδ (p110δ/p85α) Recombinant Human Protein was purchased from Eurofins (St Charles, Mo.). […] The final concentration of DMSO in the assay was 2%. […] ATP, 3.4 nM PI3Kδ. […] The final concentration of SPA beads is 1.0 mg/mL.
pIC50: −log10 of the molar value.
Quick reference: pIC50 of the listed items.

// solved cases for pIC50 follow
[[record]]
molecule = "Cc1n[nH]c2c(-c3ccccc3)c(C(C)NC(=O)c3c(N)nn4cccnc34)cc(Cl)c12 (stereo not drawn)"
reported_value = "> 6.30"

[[record]]
molecule = "CCCC(NC(=O)c1c(N)nn2cccnc12)c1cc(Cl)c2cncn2c1N1CCS(=O)(=O)CC1 (stereo not drawn)"
reported_value = "> 7.00"

[[record]]
molecule = "CC(NC(=O)c1c(N)nn2cccnc12)c1cc(Cl)c2cn[nH]c2c1-c1ccccc1 (stereo not drawn)"
reported_value = "> 6.30"

[[record]]
molecule = "Cc1cc(C(C)NC(=O)c2c(N)nn3cccnc23)c(-c2ccccc2)c2[nH]nc(C)c12 (stereo not drawn)"
reported_value = "> 5.70"

[[record]]
molecule = "CCOc1c(C(C)NC(=O)c2c(N)nn3cccnc23)cc(Cl)c2cn(C)nc12 (stereo not drawn)"
reported_value = "> 6.30"

[[record]]
molecule = "CC(NC(=O)c1c(N)nn2cccnc12)c1cc(Cl)c2cnn(CCN3CCOCC3)c2c1-c1ccccc1 (stereo not drawn)"
reported_value = "> 7.00"

[[record]]
molecule = "CCOc1c(C(C)NC(=O)c2c(N)nn3cccnc23)cc(Cl)c2cnn(C)c12 (stereo not drawn)"
reported_value = "> 7.00"


Input line: For the molecule shown here, Cc1cc(C(C)NC(=O)c2c(N)nn3cccnc23)c(-c2cccc(F)c2)n2c(C)ncc12 (stereo not drawn) , give the reported pIC50.
Output line: > 5.70
